IC50 values for Serine/threonine-protein kinase B-raf (Homo sapiens) compiled from several publications are listed below.

Sample records with IC50:
COc1ncc(-c2cnc3[nH]cc(C(=O)c4c(F)ccc(NS(=O)(=O)C5CCC5)c4F)c3c2)cn1    ≤ 10 µM
Cc1cc(NC(=O)Nc2ccc(Cl)c(C(F)(F)F)c2)cnc1Oc1ccnc(NC(=O)C2CC2)c1    0.0157 µM
CCS(=O)(=O)Nc1ccc(F)c(C(=O)c2c[nH]c3ncc(-c4ccc(F)cc4)cc23)c1F    ≤ 10 µM

Now for a further compound.
// query Value lookup for IC50; key = Cn1cc(-c2cnc3[nH]cc(C(=O)c4c(Cl)ccc(OCC(F)(F)F)c4Cl)c3c2)cn1
// result ≤ 10 µM
